Listed here: items and their measured ELISA signal (name and unit not given).
Molecular target: T1, monoclonal antibody (mAb) 5D5
T1 construct: Murine IgG1/kappa hybridoma antibody; also called 5D5 mAb; MRA-1242
T1 sequence (VH, as listed by the source, chain 1 of 2): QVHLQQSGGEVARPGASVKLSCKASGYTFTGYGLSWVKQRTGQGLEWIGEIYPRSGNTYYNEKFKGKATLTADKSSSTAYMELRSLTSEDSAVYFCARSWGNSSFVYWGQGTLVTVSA
T1 sequence (VL, as listed by the source, chain 2 of 2): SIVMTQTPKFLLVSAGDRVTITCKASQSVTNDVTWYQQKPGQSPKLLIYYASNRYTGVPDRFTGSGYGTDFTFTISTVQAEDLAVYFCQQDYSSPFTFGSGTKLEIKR
Assay: competitive ELISA, competitor against rCSP for binding to mAb 5D5; row 0.001 µg/ml
I only need the number, thanks.

DGNNEDNEK [peptide A] :: 1.05

Q: // ELISA signal (name and unit not given) lookup, key: NEKLRKPKHK [peptide C]
Result: 0.976

Q: // ELISA signal (name and unit not given) lookup, key: EDNEKLRKPKHKKLK [peptide 9 (amino acids 81-95 of CSP)]
Result: 0.19

Q: // ELISA signal (name and unit not given) lookup, key: HKKLKQPADGNPDP [peptide 10 (amino acids 91-106 of CSP)]
Result: 0.92
